Where do the numbers come from? From the supplement of paper PMC3334620.

- systemName: Ecm22 (UniProt Q05958)
- Sequence: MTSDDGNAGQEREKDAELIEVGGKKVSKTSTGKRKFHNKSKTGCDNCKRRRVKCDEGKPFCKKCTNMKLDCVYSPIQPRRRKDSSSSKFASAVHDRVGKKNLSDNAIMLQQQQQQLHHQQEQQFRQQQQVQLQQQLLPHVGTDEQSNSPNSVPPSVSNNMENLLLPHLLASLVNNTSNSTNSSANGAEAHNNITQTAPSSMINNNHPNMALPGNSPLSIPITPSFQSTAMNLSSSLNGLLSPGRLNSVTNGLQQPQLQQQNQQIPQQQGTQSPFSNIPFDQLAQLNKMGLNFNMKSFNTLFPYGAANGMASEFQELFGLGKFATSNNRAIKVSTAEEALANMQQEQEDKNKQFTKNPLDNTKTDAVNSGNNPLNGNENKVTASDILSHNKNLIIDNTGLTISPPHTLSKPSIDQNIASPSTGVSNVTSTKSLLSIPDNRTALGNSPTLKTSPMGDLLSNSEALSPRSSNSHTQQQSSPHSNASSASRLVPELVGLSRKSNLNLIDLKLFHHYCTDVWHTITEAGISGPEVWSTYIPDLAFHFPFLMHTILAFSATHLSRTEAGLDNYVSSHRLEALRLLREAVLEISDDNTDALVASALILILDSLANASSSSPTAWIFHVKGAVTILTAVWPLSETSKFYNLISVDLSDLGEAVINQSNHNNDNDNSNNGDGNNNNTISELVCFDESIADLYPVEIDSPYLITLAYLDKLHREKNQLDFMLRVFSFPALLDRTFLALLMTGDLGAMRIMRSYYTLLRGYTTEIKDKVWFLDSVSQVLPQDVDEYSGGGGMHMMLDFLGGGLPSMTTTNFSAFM
- testDescription: PBM E-score (8-mer binding enrichment) (E-score (-0.5 to 0.5)); higher = stronger / more preferred TF binding
- appliedConditions: protein concentration: 200 nM; construct: GST-full length
The full ranking holds about 33,000 sequences; the median of “E-score (-0.5 to 0.5)” is about -0.041, and the highest 2% start at about 0.37. The entries come from a sample that favours the highest values as a whole.
Exercise: state measured PBM E-score for each of the sequences provided.
Answers are plain numbers.

{"residues": "CGTGCGCA", "PBM E-score": -0.0738}
{"residues": "CCGAGGGC", "PBM E-score": 0.203}

Parameter requested: PBM E-score. Apply to each item below.
1. GTACGATA
2. AGACGATA
3. GACTCGAC
4. ACGCTGCA

Out:
1: 0.456; 2: 0.143; 3: 0.0219; 4: -0.0508

Parameter requested: PBM E-score. Apply to each item below.
1. GACAGAGA
2. CCACCAAA
3. GGTTCCGA
4. CCGTTTAG
5. CTTTCCGC
6. CAGTTTAG
7. ACGAGGGG

Out:
[0.0187, -0.13, -0.00514, 0.433, -0.0543, -0.0933, 0.365]

====

- systemName: Ecm22 (UniProt Q05958)
- Sequence: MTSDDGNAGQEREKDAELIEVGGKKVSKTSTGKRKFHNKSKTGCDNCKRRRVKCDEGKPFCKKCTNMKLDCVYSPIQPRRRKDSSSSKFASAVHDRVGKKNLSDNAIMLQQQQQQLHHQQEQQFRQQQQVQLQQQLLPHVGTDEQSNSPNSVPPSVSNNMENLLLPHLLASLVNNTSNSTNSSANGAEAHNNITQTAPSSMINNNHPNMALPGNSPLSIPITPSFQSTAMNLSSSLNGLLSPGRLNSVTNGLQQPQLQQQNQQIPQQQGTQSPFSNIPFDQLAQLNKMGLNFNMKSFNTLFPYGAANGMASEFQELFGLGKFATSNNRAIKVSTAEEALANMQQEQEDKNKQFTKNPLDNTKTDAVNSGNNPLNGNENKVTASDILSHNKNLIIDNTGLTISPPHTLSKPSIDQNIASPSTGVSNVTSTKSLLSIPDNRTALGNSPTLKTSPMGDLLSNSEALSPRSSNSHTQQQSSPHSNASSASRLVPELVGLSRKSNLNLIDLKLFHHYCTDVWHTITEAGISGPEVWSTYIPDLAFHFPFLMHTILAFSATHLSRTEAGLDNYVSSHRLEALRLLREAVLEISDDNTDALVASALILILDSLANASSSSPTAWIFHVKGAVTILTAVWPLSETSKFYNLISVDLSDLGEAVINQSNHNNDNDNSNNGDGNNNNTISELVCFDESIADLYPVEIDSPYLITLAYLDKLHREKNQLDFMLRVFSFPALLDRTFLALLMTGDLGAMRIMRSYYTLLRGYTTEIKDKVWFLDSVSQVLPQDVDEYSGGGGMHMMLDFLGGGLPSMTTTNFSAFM
- testDescription: PBM E-score (8-mer binding enrichment) (E-score (-0.5 to 0.5)); higher = stronger / more preferred TF binding
- appliedConditions: protein concentration: 200 nM; construct: GST-full length
The full ranking holds about 33,000 sequences; the median of “E-score (-0.5 to 0.5)” is about -0.041, and the highest 2% start at about 0.37. What follows is part of a selection rich in the highest values, with near analogues and random picks from the rest.
Tick fulfilled if PBM E-score is 0.09 or greater. Tick not fulfilled if PBM E-score is less than 0.09.

# count of solved cases: 6
{"residues": "CACGAGCA", "systemName": "Ecm22 (UniProt Q05958)", "group": "not fulfilled"}
{"residues": "AGTACGGA", "systemName": "Ecm22 (UniProt Q05958)", "group": "fulfilled"}
{"residues": "AACGAGCA", "systemName": "Ecm22 (UniProt Q05958)", "group": "fulfilled"}
{"residues": "CACGAGCC", "systemName": "Ecm22 (UniProt Q05958)", "group": "fulfilled"}
{"residues": "AGCGAGCG", "systemName": "Ecm22 (UniProt Q05958)", "group": "fulfilled"}
{"residues": "GACACCCA", "systemName": "Ecm22 (UniProt Q05958)", "group": "not fulfilled"}

In: Answer whether PBM E-score of `CGTACGGA` is greater than or equal to 0.09.
Out: fulfilled

In: Okay, and `ACCAGAAG` ?
Out: not fulfilled

In: Okay, and `ATCTCACG` ?
Out: not fulfilled

In: Okay, and `GACGAGCC` ?
Out: not fulfilled

In: Okay, and `GAGGTTGA` ?
Out: not fulfilled

In: Okay, and `GGTACGGA` ?
Out: fulfilled
